Biological target: T1, human G-CSF receptor (human, UniProt Q99062 25-836)
T1 sequence (looked up): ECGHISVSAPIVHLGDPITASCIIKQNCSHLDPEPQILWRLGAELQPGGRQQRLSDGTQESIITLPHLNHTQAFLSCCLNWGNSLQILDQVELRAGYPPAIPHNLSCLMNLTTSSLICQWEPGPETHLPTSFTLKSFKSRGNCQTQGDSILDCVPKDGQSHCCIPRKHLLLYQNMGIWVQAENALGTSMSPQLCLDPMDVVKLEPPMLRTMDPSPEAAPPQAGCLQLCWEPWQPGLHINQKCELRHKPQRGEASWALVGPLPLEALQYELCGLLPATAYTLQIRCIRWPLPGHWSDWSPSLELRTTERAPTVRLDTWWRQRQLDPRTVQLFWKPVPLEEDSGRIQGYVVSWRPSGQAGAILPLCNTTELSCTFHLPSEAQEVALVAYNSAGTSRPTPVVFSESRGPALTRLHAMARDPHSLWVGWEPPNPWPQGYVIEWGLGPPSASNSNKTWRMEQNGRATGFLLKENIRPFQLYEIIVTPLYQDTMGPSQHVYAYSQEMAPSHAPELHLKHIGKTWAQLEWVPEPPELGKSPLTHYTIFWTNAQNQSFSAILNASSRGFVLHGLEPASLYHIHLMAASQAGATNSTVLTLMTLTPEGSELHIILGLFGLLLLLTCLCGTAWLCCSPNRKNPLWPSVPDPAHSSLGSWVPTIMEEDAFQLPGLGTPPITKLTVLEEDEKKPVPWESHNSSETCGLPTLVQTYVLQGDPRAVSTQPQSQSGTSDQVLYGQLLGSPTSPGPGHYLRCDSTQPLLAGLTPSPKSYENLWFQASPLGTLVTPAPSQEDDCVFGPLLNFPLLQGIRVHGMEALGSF
Assay: cell-based or functional assay
measure: EC50 (% of hG-CSF) conjugated to SPA-PEG 5000

[Q] // lookup EC50 (% of hG-CSF) conjugated to SPA-PEG 5000 for SPA-PEG 5000-conjugated hG-CSF K16R K34R K40R Q70K Q120K T133K (ligand, SPA-PEG 5000 on the available PEGylation sites) TPLGPASSLPQSFLLRCLEQVRKIQGDGAALQERLCATYRLCHPEELVLLGHSLGIPWAPLSSCPSQALKLAGCLSQLHSGLFLYQGLLQALEGISPELGPTLDTLQLDVADFATTIWQKMEELGMAPALQPKQGAMPAFASAFQRRAGGVLVASHLQSFLEVSYRVLRHLAQP
[A] 5 % of hG-CSF

[Q] Param item: SPA-PEG 5000-conjugated hG-CSF K16R K34R K40R Q90K Q120K T133K (ligand, SPA-PEG 5000 on the available PEGylation sites) TPLGPASSLPQSFLLRCLEQVRKIQGDGAALQERLCATYRLCHPEELVLLGHSLGIPWAPLSSCPSQALQLAGCLSQLHSGLFLYQGLLKALEGISPELGPTLDTLQLDVADFATTIWQKMEELGMAPALQPKQGAMPAFASAFQRRAGGVLVASHLQSFLEVSYRVLRHLAQP
[A] 5 % of hG-CSF

[Q] Then this binder: SPA-PEG 5000-conjugated hG-CSF K16R K34R K40R Q70K Q90K Q120K (ligand, SPA-PEG 5000 on the available PEGylation sites) TPLGPASSLPQSFLLRCLEQVRKIQGDGAALQERLCATYRLCHPEELVLLGHSLGIPWAPLSSCPSQALKLAGCLSQLHSGLFLYQGLLKALEGISPELGPTLDTLQLDVADFATTIWQKMEELGMAPALQPTQGAMPAFASAFQRRAGGVLVASHLQSFLEVSYRVLRHLAQP
[A] 10 % of hG-CSF

[Q] Moving on to SPA-PEG 5000-conjugated hG-CSF K16R K34R K40R Q70K Q120K (ligand, SPA-PEG 5000 on the available PEGylation sites) TPLGPASSLPQSFLLRCLEQVRKIQGDGAALQERLCATYRLCHPEELVLLGHSLGIPWAPLSSCPSQALKLAGCLSQLHSGLFLYQGLLQALEGISPELGPTLDTLQLDVADFATTIWQKMEELGMAPALQPTQGAMPAFASAFQRRAGGVLVASHLQSFLEVSYRVLRHLAQP
[A] 15 % of hG-CSF

[Q] Do the same for SPA-PEG 5000-conjugated hG-CSF K16R K34R K40R Q70K Q90K T105K (ligand, SPA-PEG 5000 on the available PEGylation sites) TPLGPASSLPQSFLLRCLEQVRKIQGDGAALQERLCATYRLCHPEELVLLGHSLGIPWAPLSSCPSQALKLAGCLSQLHSGLFLYQGLLKALEGISPELGPTLDKLQLDVADFATTIWQQMEELGMAPALQPTQGAMPAFASAFQRRAGGVLVASHLQSFLEVSYRVLRHLAQP please
[A] 2 % of hG-CSF
